Sourced from patent US9975885B2

# NL63-3CL^pro (Human coronavirus NL63 (HCoV-NL63)): IC50 values follow
# Sequence (P0C6X5 2940-3242 limits assumed): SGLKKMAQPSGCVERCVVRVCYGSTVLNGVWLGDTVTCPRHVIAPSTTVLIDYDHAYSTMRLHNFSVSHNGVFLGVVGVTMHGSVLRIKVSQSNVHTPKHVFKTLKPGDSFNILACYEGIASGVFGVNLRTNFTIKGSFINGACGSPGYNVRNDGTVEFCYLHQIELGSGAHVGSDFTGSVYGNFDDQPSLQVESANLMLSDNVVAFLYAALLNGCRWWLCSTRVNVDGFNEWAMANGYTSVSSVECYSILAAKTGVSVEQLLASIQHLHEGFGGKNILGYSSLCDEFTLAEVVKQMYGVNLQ
Write the answer as a number in µM, unit excluded.

Field: example entries. Status: answers known.
COMPOUND | EXPERIMENTAL_SYSTEM | READING_UNIT | ENDPOINT_VALUE
CC(C)CNC(=O)C(c1cccnc1)N(C(=O)c1c[nH]cn1)c1ccc(C(C)(C)C)cc1 (stereo not shown) [Compound 43] | NL63-3CL^pro (Human coronavirus NL63 (HCoV-NL63)) | µM | 13.5
CC(C)(C)c1ccc(N(C(=O)c2c[nH]cn2)C(C(=O)NC2CC2)c2cccnc2)cc1 (stereo not shown) [Compound 46] | NL63-3CL^pro (Human coronavirus NL63 (HCoV-NL63)) | µM | 16.8
CC(C)(C)CNC(=O)C(c1cccnc1)N(C(=O)c1c[nH]cn1)c1ccc(C(C)(C)C)cc1 (stereo not shown) [Compound 44] | NL63-3CL^pro (Human coronavirus NL63 (HCoV-NL63)) | µM | 8.2

Here is the next item to consider.
Req: Notebook entry, NL63-3CL^pro (Human coronavirus NL63 (HCoV-NL63)) assay: IC50 of CC(C)(C)OC(=O)CNC(=O)C(c1ccsc1)N(C(=O)Cn1nnc2ccccc21)c1ccc(NC(=O)C2CC2)cc1 (stereo not shown) [Compound 64] = ?
Resp: 8.7

----------
Test system: Ten CoV 3CL^pro's (FIPV-, PEDV-, NL63-, HKU1-, OC43-, SARS-, HKU4-, HKU5-, HKU9-, IBV-3CL^pro)
Assay type: biochemical, coronaviruses (α-, β-, γ-CoV)
MEASURED_QUANTITY: Score (performance metric score)
// print number alone

Illustrative cases are given below, each with its answer.
MOLECULE | Score (performance metric score)
CC(C)(C)c1ccc(N(C(=O)c2c[nH]cn2)C(C(=O)NC2CC2)c2cccnc2)cc1 (centres unmarked) | 4.0
CC(C)(C)NC(=O)C(c1cccnc1)N(C(=O)c1c[nH]cn1)c1ccc(C(C)(C)C)cc1 (centres unmarked) [Compound 3P, reference compound] | 2.7
CC(C)C(=O)Nc1ccc(N(C(=O)Cn2cnc3ccccc32)C(C(=O)NCc2ccccc2)c2cccc(F)c2)cc1 (centres unmarked) | 6.8
CC(C)(C)NC(=O)C(c1cccnc1)N(C(=O)c1c[nH]cn1)c1ccc(C2CCC2)cc1 (centres unmarked) | 3.6

Req: May I ask what Score (performance metric score) has been recorded for CC(C)C(=O)Nc1ccc(N(C(=O)Cn2nnc3ccccc32)C(C(=O)NCc2ccccc2)c2cccnc2)cc1 (centres unmarked) ?
Resp: 9.7

----------
Target: OC43-3CL^pro (Human coronavirus OC43 (HCoV-OC43))
Sequence (P0C6X6 3247-3549 limits assumed): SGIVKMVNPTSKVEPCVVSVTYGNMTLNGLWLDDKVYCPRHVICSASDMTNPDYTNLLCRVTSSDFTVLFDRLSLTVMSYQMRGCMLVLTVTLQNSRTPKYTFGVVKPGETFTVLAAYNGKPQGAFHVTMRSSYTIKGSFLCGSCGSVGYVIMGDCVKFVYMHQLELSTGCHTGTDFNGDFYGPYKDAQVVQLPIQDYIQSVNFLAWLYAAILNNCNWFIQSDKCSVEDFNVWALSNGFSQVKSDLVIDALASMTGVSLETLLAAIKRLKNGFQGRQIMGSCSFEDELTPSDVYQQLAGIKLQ
Below: a set of entries, each annotated with reported pIC50.
Convention used: pIC50 is expressed as -log10 of the molar concentration.

// solved cases for pIC50 follow
MOLECULE | MEASURED_QUANTITY | ENDPOINT_VALUE
CC(C)(C)NC(=O)C(c1ccsc1)N(C(=O)Cn1nnc2ccccc21)c1ccc(NC(=O)C2CC2)cc1 (stereo not drawn) [Compound 2P, reference compound] | pIC50 | 4.61
CC(C)Cc1ccc(N(C(=O)c2c[nH]cn2)C(C(=O)NC(C)(C)C)c2cccnc2)cc1 (stereo not drawn) | pIC50 | 4.61
CC(C)CNC(=O)C(c1cccnc1)N(C(=O)c1c[nH]cn1)c1ccc(C(C)(C)C)cc1 (stereo not drawn) | pIC50 | 4.91
O=C(Nc1ccc(N(C(=O)Cn2nnc3ccccc32)C(C(=O)NCc2cccnc2)c2ccsc2)cc1)C1CC1 (stereo not drawn) | pIC50 | 5.05
CC(C)C(=O)Nc1ccc(N(C(=O)Cn2cnc3ccccc32)C(C(=O)NCc2ccccc2)c2cccc(F)c2)cc1 (stereo not drawn) | pIC50 | 5.41
O=C(Nc1ccc(N(C(=O)Cn2nnc3ccccc32)C(C(=O)NC2CC2)c2ccsc2)cc1)C1CC1 (stereo not drawn) | pIC50 | 5.55
CC(C)(C)c1ccc(N(C(=O)c2c[nH]cn2)C(C(=O)NC2CC2)c2cccnc2)cc1 (stereo not drawn) | pIC50 | 4.61
CC(C)(C)OC(=O)CNC(=O)C(c1ccsc1)N(C(=O)Cn1nnc2ccccc21)c1ccc(NC(=O)C2CC2)cc1 (stereo not drawn) | pIC50 | 5.35

// next entry
Req: Field: pIC50 (OC43-3CL^pro (Human coronavirus OC43 (HCoV-OC43))). Entry: O=C(Nc1ccc(N(C(=O)Cn2nnc3ccccc32)C(C(=O)NCc2ccccc2)c2ccsc2)cc1)C1CC1 (stereo not drawn)
Resp: 5.66

----------
Observed IC50 for HKU4-3CL^pro (Bat coronavirus HKU4 (BtCoV) (BtCoV/HKU4/2004)), reported per entry below.
Just the number in µM, nothing appended.

These solved cases illustrate the format of a correct answer.
MOLECULE | IC50 [µM]
CC(C)(C)NC(=O)C(c1cccnc1)N(C(=O)c1c[nH]cn1)c1ccc(C2CCCC2)cc1 (stereo not shown) | 19.8
CC(C)(C)c1ccc(N(C(=O)c2c[nH]cn2)C(C(=O)NC2CC2)c2cccnc2)cc1 (stereo not shown) | 11.2
CC(C)(C)NC(=O)C(c1cccnc1)N(C(=O)c1c[nH]cn1)c1ccc(C2CC2)cc1 (stereo not shown) | 16.6
CC(C)(C)NC(=O)C(c1cccnc1)N(C(=O)c1c[nH]cn1)c1ccc(C2CCCCC2)cc1 (stereo not shown) | 27

Req: Suppose we examine the molecule CC(C)(C)CNC(=O)C(c1cccnc1)N(C(=O)c1c[nH]cn1)c1ccc(C(C)(C)C)cc1 (stereo not shown) ; what IC50 value has been reported?
Resp: 4.2

Req: Fill in the blank: the reported IC50 of CC(C)C(=O)Nc1ccc(N(C(=O)Cn2nnc3ccccc32)C(C(=O)NCc2ccccc2)c2cccnc2)cc1 (stereo not shown) is ____.
Resp: 4

Req: # input molecule: CC(C)(C)NC(=O)C(c1cccnc1)N(C(=O)c1c[nH]cn1)c1ccc(C2CCC2)cc1 (stereo not shown) ; wanted: its IC50
Resp: 9.6

----------
Consider the following IC50 values measured on SARS-3CL^pro (Severe acute respiratory syndrome coronavirus (SARS-CoV), UniProt P0C6X7).
The response must be a number in µM with no trailing unit.

COMPOUND | IC50 / µM
CC(C)(C)c1ccc(N(C(=O)c2c[nH]cn2)C(C(=O)NC2CCCC2)c2cccnc2)cc1 (stereo not shown) | 1.7
O=C(Nc1ccc(N(C(=O)Cn2nnc3ccccc32)C(C(=O)NCc2ccccc2)c2ccsc2)cc1)C1CC1 (stereo not shown) | 2
O=C(Nc1ccc(N(C(=O)Cn2nnc3ccccc32)C(C(=O)NCc2cccnc2)c2ccsc2)cc1)C1CC1 (stereo not shown) | 9.9
CC(C)(C)c1ccc(N(C(=O)c2c[nH]cn2)C(C(=O)NCc2ccccc2)c2cccnc2)cc1 (stereo not shown) | 6.6
CC(C)C(=O)Nc1ccc(N(C(=O)Cn2nnc3ccccc32)C(C(=O)NCc2cccnc2)c2cccc(F)c2)cc1 (stereo not shown) | 5.5

Req: Fill in the blank: the reported IC50 of CC(C)C(=O)Nc1ccc(N(C(=O)Cn2nnc3ccccc32)C(C(=O)NCc2ccccc2)c2cccc(F)c2)cc1 (stereo not shown) [Compound 1P, reference compound] is ____.
Resp: 1.6

Req: Can you share its IC50? I mean this compound: CC(C)C(=O)Nc1ccc(N(C(=O)Cn2nnc3ccccc32)C(C(=O)NCc2ccccc2)c2cccnc2)cc1 (stereo not shown)
Resp: 10.9

----------
Overview of recorded IC50 for various compounds
Molecular target: HKU4-3CL^pro (Bat coronavirus HKU4 (BtCoV) (BtCoV/HKU4/2004), UniProt P0C6W3)
Sequence (P0C6W3 3292-3597 limits assumed): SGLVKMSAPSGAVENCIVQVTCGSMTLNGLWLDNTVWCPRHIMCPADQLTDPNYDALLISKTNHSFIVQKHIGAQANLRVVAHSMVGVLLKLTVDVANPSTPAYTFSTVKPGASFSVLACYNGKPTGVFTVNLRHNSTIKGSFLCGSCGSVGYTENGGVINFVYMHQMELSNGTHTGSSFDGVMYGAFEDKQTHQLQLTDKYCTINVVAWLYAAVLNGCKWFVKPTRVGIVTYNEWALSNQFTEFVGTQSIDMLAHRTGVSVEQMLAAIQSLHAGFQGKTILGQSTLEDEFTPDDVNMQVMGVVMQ
Report as a plain number; the unit nM is understood.

COMPOUND | IC50 (nM)
CC(C)(C)OC(=O)CNC(=O)C(c1ccsc1)N(C(=O)Cn1nnc2ccccc21)c1ccc(NC(=O)C2CC2)cc1 (stereo not shown) | 2100
CC(C)(C)c1ccc(N(C(=O)c2c[nH]cn2)C(C(=O)NCc2ccccc2)c2cccnc2)cc1 (stereo not shown) | 26100
O=C(Nc1ccc(N(C(=O)Cn2nnc3ccccc32)C(C(=O)NCc2ccccc2)c2ccsc2)cc1)C1CC1 (stereo not shown) | 600

Req: Give IC50 (HKU4-3CL^pro (Bat coronavirus HKU4 (BtCoV) (BtCoV/HKU4/2004), UniProt P0C6W3)) of the following compound: CC(C)C(=O)Nc1ccc(N(C(=O)Cn2cnc3ccccc32)C(C(=O)NCc2ccccc2)c2cccc(F)c2)cc1 (stereo not shown)
Resp: 2500

----------
Target: HKU9-3CL^pro (Bat coronavirus HKU9 (BtCoV) (BtCoV/HKU9))
Sequence (P0C6W5 3104-3409 limits assumed): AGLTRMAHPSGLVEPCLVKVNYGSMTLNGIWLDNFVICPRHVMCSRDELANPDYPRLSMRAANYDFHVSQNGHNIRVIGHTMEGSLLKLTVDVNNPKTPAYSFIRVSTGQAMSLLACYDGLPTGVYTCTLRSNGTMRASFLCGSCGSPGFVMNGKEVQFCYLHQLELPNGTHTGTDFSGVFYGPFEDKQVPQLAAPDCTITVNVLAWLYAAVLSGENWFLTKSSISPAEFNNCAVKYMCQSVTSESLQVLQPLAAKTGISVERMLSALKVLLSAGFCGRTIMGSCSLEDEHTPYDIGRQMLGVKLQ
pIC50: −log10 of the molar value.
Quick rule: pIC50 of at least 5 means MET, below that means NOT MET.

Observe how each entry below is paired with its result.
MOLECULE | LABEL
CC(C)(C)NC(=O)C(c1cccnc1)N(C(=O)c1c[nH]cn1)c1ccc(C2CCC2)cc1 (stereo not drawn) | NOT MET
CC(C)(C)c1ccc(N(C(=O)c2c[nH]cn2)C(C(=O)NC2CCCC2)c2cccnc2)cc1 (stereo not drawn) | MET
CC(C)(C)c1ccc(N(C(=O)c2c[nH]cn2)C(C(=O)NCc2ccccc2)c2cccnc2)cc1 (stereo not drawn) | NOT MET

Req: Evaluate CC(C)Cc1ccc(N(C(=O)c2c[nH]cn2)C(C(=O)NC(C)(C)C)c2cccnc2)cc1 (stereo not drawn) : pIC50 at minimum 5?
Resp: NOT MET
